# Log10GI50 values compiled below
System: IGROVI
ASSAY_NOTES: NCI 60 cell line panel screen (SRB)
Format: cell-based, human
EXPERIMENTAL_CONDITIONS: Ovarian Cancer, IGROVI
Keep the answer to the number alone.

# count of solved cases: 5
CC1CCC2C(C)C(CC(COCC(=O)O)CC3OC4OC5(C)CCC6C(C)CCC(C3C)C46OO5)OC3OC4(C)CCC1C32OO4 (stereo not drawn) [Compound 12b, bis-trioxane O-acetic acid]	−5.06
CC1CCC2C(C)C(CC(COC(=O)CCC(=O)O)CC3OC4OC5(C)CCC6C(C)CCC(C3C)C46OO5)OC3OC4(C)CCC1C32OO4 (stereo not drawn) [Compound 8a, bis-trioxane primary succinate monoester]	−5.07
C[C@@H]1CC[C@H]2[C@@H](C)C(=O)O[C@@H]3O[C@]4(C)CC[C@@H]1[C@]32OO4	−4.31
CC(=O)O[C@H]1C(=O)[C@@]2(C)[C@H]([C@H](OC(=O)c3ccccc3)[C@]3(O)C[C@H](OC(=O)[C@H](O)[C@@H](NC(=O)c4ccccc4)c4ccccc4)C(C)=C1C3(C)C)[C@]1(OC(C)=O)CO[C@@H]1C[C@@H]2O [Paclitaxel, paclitaxel, reference compound]	−8.61
CC1CCC2C(C)C(CC(O)(CO)CC3OC4OC5(C)CCC6C(C)CCC(C3C)C46OO5)OC3OC4(C)CCC1C32OO4 (stereo not drawn)	−4.97

Now consider the entry below.
Prompt: Note Log10GI50 for the molecule shown: CC1CCC2C(C)C(CC(CO)CC3OC4OC5(C)CCC6C(C)CCC(C3C)C46OO5)OC3OC4(C)CCC1C32OO4 (stereo not drawn)
Completion: −5.36
